Tested on: K562
measurement-description: NCI tumour cell line growth inhibition, 48 h
Calls of active or inactive are those of the source. No stated cut-off is given here; in the data, active = GI50 up to about 1.1 µM and inactive = higher.
experimental-endpoint: GI50

Could you report GI50 for every entry in the following list?
1. Nc1nc(Cl)c(N)c(NCC2(CO)CC(O)C2)n1 (configuration not stated)
2. CC(=O)N(C(C)=O)n1c(Cc2ccc(Cl)cc2)n[nH]c1=O
3. c1ccc2c3c(c(N4CCNCC4)nc2c1)CCCC3
4. CSc1ccc2c(cc1=O)[C@@H](NC(=O)c1ccc([N+](=O)[O-])cc1)CCc1cc(O)c(O)c(O)c1-2
5. Cc1ccc(S(=O)(=O)NCCN(CCNS(=O)(=O)c2ccc(C)cc2)S(=O)(=O)c2ccc(C)cc2)cc1

Return:
> 100 µM (inactive)
> 100 µM (inactive)
5.5 µM (inactive)
18.4 µM (inactive)
> 100 µM (inactive)

Could you report GI50 for every entry in the following list?
1. Nc1cc(-c2ccccc2)nn1-c1nsc2ccccc12
2. O=C(OCC1CO1)c1cccs1 (configuration not stated)
3. COC1=C2CC(C)CC(OC)[C@@H](OC(=O)CCN)[C@H](C)/C=C(\C)C(OC(N)=O)C(OC)/C=C\C=C(/C)C(=O)NC(=CC1=O)C2=O (some centres not stated)
4. COc1ccc(-c2nc(N)n(C)c2SSc2c(-c3ccc(OC)cc3)nc(N)n2C)cc1
5. O=C(c1no[n+]([O-])c1C(=O)c1csc2ccccc12)c1csc2ccccc12

Return:
40.4 µM (inactive)
> 100 µM (inactive)
0.269 µM (active)
2.83 µM (inactive)
1.52 µM (inactive)

Could you report GI50 for every entry in the following list?
1. C=CCc1ccccc1CC1(OCC)OC(=O)c2ccccc21 (configuration not stated)
2. Oc1cc(O)cc(/C=C/c2ccc(O)c(O)c2)c1
3. C=C1C(=O)OC2C3C(=C)[C@@H](OC(C)=O)CC3C(C)=CC(OC(=O)C(C)(OC(C)=O)C(C)OC(C)=O)[C@@H]12 (some centres not stated)
4. CCCCc1ccc(-n2sc3ncc(-c4ccccc4)cc3c2=O)cc1
5. CCc1ccccc1NC(=O)C1=C(C)NC(C)=C(C(=O)Nc2ccccc2CC)C1c1ccc(NC(C)=O)cc1
6. C=CC1(C)CC(=O)C2(O)C(C)(O1)C(OC(C)=O)C(O)C1C(C)(C)CCC(O)C12C (configuration not stated)
7. CCC(=O)OC[n+]1ccc2c(C)c3[nH]c4ccccc4c3c(C)c2c1
8. CC(=O)c1c(SCCN2CCOCC2)n(-c2ccccc2)c(=S)n(-c2ccccc2)c1=O

Return:
51.8 µM (inactive)
4.49 µM (inactive)
7.29 µM (inactive)
> 100 µM (inactive)
23.1 µM (inactive)
> 150 µM (inactive)
0.618 µM (active)
14.1 µM (inactive)

* * *

Can you tell me GI50 for the items I'm about to list?
Tested on: SK-MEL-2
measurement-description: NCI tumour cell line growth inhibition, 48 h
Activity calls are given as the source filed them. No stated cut-off is given here; in the data, active = GI50 up to about 1.1 µM and inactive = higher.

- compound: "O=c1c2cc(S(=O)(=O)Nc3ccccc3Cl)ccc2ncn1NS(=O)(=O)c1ccc(Br)cc1"
  assay-system: "SK-MEL-2"
  experimental-endpoint: "GI50"
  observed: "> 37.5 µM (inactive)"
- compound: "COc1ccc(OC(C)C(=O)O)c2c1CCCC2=O (stereo not given)"
  assay-system: "SK-MEL-2"
  experimental-endpoint: "GI50"
  observed: "> 100 µM (inactive)"
- compound: "Cc1cc(OCc2nnc3n2N=C(c2cc(F)c(Cl)cc2Cl)/C(=C/c2ccc(Cl)cc2)S3)ccc1Cl"
  assay-system: "SK-MEL-2"
  experimental-endpoint: "GI50"
  observed: "29 µM (inactive)"
- compound: "CC(=O)OC(CC(C)C)P1(=O)N(CC(C)(C)C)[C@@H]2CCCC[C@H]2N1CC(C)(C)C (stereo not given in full)"
  assay-system: "SK-MEL-2"
  experimental-endpoint: "GI50"
  observed: "7.6 µM (inactive)"

Let's switch to this compound now.
Enquiry: Value lookup for GI50; key = `Oc1ccc(-c2nc3ccccc3s2)cc1`
Return: 20.4 µM (inactive)

* * *

Tested on: LOX IMVI
measurement-description: NCI tumour cell line growth inhibition, 48 h
Calls of active or inactive are those of the source. Cut-off read from the data, not from the text of the source: active = GI50 up to about 1.1 µM and inactive = higher. Starred links: 1 amine or outer side, 2 acyl side, 3 side chain; linkers in the order of their positions; H or OH if unused. Positions of bridges follow the written chain, without caps; N, C: chain ends. Non-standard residues stand in square brackets, D forms with d. Residues, ends and D or L forms follow the SMILES beside them. Chains are numbered I, II in the order given. Actinocin(1to9) = Cc1c2oc3c(C)ccc(C(=O)[*:2])c3nc-2c(C(=O)[*:1])c(N)c1=O; aThr = C[C@H](O)[C@H](N)C(=O)O; NMeV = CN[C@H](C(=O)O)C(C)C; Sar = CNCC(=O)O
Can you tell me GI50 for the items I'm about to list?

Could you report GI50 for every entry in the following list?
1. Cc1c2oc3c(C)ccc(C(=O)N[C@@H]4C(=O)N[C@H](C(C)C)C(=O)N5CCC[C@H]5C(=O)N(C)CC(=O)N(C)[C@@H](C(C)C)C(=O)O[C@H]4C)c3nc-2c(C(=O)N[C@@H]2C(=O)N[C@H](C(C)C)C(=O)N3CCC[C@H]3C(=O)N(C)CC(=O)N(C)[C@@H](C(C)C)C(=O)O[C@H]2C)c(N)c1=O (I: [aThr][dV]P[Sar][NMeV] / II: [aThr][dV]P[Sar][NMeV]; ester I:1-I:C, II:1-II:C; linker I:N-II:N via Actinocin(1to9))
2. O=P(O)(O)C(NCC(O)CN1CCOCC1)P(=O)(O)O (stereo unspecified)

Return:
["0.000518 µM (active)", "> 100 µM (inactive)"]

Could you report GI50 for every entry in the following list?
1. O=C(c1ccccc1)c1nnn(Cc2ccccc2Cn2nnc(C(=O)c3ccccc3)c2C(=O)c2ccccc2)c1C(=O)c1ccccc1
2. COc1ccc(OC(C)C(=O)O)c2c1CCCC2=O (stereo unspecified)
3. Fc1ccc(-c2sc(-c3ccsc3)cc2Cc2ccsc2)cc1

Return:
1: > 100 µM (inactive); 2: > 100 µM (inactive); 3: > 10 µM (inactive)

Enquiry: Notebook: pull reported GI50 for LOX IMVI, entry `O=[N+]([O-])c1c(/C=N/Nc2ccccc2)oc(-c2ccc3c(c2)OCO3)c1-c1ccc2c(c1)OCO2`
Return: 0.74 µM (active)

* * *

Test system: KM12
measurement-description: NCI tumour cell line growth inhibition, 48 h
Active and inactive are the calls of the source. Cut-off read from the data, not from the text of the source: active = GI50 up to about 1.1 µM and inactive = higher. Starred links: 1 amine or outer side, 2 acyl side, 3 side chain; linkers in the order of their positions; H or OH if unused. Positions of bridges follow the written chain, without caps; N, C: chain ends. Non-standard residues stand in square brackets, D forms with d. Residues, ends and D or L forms follow the SMILES beside them. Chains are numbered I, II in the order given. Actinocin(1to9) = Cc1c2oc3c(C)ccc(C(=O)[*:2])c3nc-2c(C(=O)[*:1])c(N)c1=O; aThr = C[C@H](O)[C@H](N)C(=O)O; NMeV = CN[C@H](C(=O)O)C(C)C; Sar = CNCC(=O)O
experimental-endpoint: GI50

Solved cases below.
- compound: "C[C@]12CC[C@H](O)C[C@@H]1CC[C@@H]1[C@@H]2CC[C@]2(C)[C@@H](C3=CC(=O)OC3)CC[C@]12O"
  GI50: "5.81 µM (inactive)"
- compound: "Cc1c2oc3c(C)ccc(C(=O)N[C@@H]4C(=O)N[C@H](C(C)C)C(=O)N5CCC[C@H]5C(=O)N(C)CC(=O)N(C)[C@@H](C(C)C)C(=O)O[C@H]4C)c3nc-2c(C(=O)N[C@@H]2C(=O)N[C@H](C(C)C)C(=O)N3CCC[C@H]3C(=O)N(C)CC(=O)N(C)[C@@H](C(C)C)C(=O)O[C@H]2C)c(N)c1=O (I: [aThr][dV]P[Sar][NMeV] / II: [aThr][dV]P[Sar][NMeV]; ester I:1-I:C, II:1-II:C; linker I:N-II:N via Actinocin(1to9))"
  GI50: "0.00128 µM (active)"
- compound: "CN1C(=O)CC2CCC(=O)N2c2cccnc21 (configuration not stated)"
  GI50: "> 100 µM (inactive)"
- compound: "COC(=O)C(C(=O)C(=O)Nc1cccc(C)c1)C1=NC(N)SS1 (configuration not stated)"
  GI50: "> 100 µM (inactive)"
- compound: "CC1CN=C(Nc2ccc(F)cc2F)S1 (configuration not stated)"
  GI50: "> 100 µM (inactive)"

Could you report GI50 for every entry in the following list?
1. CCN(CC)C(=S)SS(=O)(=O)c1ccc(C)cc1
2. CCOC(=O)c1sc2nc(SC)nc(Nc3ccc4c(c3)OCCO4)c2c1N

Return:
1. 14.2 µM (inactive)
2. 44.6 µM (inactive)
